Data origin, for the record: patent US20240400689A1

experimentalSystem: T1, mouse CD276 protein (mouse, UniProt Q8VE98 29-316)
T1 construct: whole, on cells; also called mCD276; CHO-S-mCD276
T1 sequence (looked up): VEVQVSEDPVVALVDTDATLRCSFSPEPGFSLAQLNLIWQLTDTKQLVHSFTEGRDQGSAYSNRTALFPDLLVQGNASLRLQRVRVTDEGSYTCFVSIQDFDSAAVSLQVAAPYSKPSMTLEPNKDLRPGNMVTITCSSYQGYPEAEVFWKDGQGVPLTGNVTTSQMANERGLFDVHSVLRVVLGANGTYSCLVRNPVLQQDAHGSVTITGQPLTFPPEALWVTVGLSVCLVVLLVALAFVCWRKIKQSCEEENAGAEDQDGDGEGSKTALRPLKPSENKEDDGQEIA
protocolText: FACS on CHO-S-mCD276 cells
Description: Screening & Expansion—The subcloning plates were screened by protein or cell-based Elisa, and the subclones with good binding ability were expanded to 24-wells for confirmation tests. The specificity and cross-reactivity of these subclones were confirmed with FACS analysis. […] Median fluorescence intensity was measured by FACS analysis.
quantity: FACS MFI

binder	endpointResult
16-C6-F7-F5 (antibody, V domains shown, mouse monoclonal antibody (hybridoma)) VH: QIQLVQSGPEVKKPGETVKISCKASGYTFTKYGINWVKQAPGEGLKWMGWIWTYTGKPTYGDDFKGRFAFSLETSASTAYLQISDLKIEDMATYFCARDDGYYYTMNYWGQGTSVTVSS VL: DIVMTQTPLSLPVSLGDQASISCRSSQSLLHTNGDTYLHWYLQKAGQPPKLLIYKVSNRFSGVPDRFSGSGSGTDFTLKISRVEAEDLGVYFCSQSTHIPWTFGGGTKLEIK	1830
16-G3-D10-C10 (antibody, V domains shown, mouse monoclonal antibody (hybridoma)) VH: QIQLVQSGPELKKPGETVKISCKASGYTFRNYGMNWVKQGPGKDLKWMGWINPYTGEPTYIGDFKGRFAFSLETSANSAYLQINNLNNEDMATYFCARDDGYWYTMDYWGQGTSVTVSS VL: DVVMTQTPPSLPVSLGDQASIPCRSSQSLVHSNGITYLHWYLQKPGQSPKLLIYKVSNRFSGVPDRFSGSGSGTDFTLKISRVEAEDLGVYFCSQSTHVPWTFGGGTKLEIK	1320
